# assayed-system: IRAK4 (Homo sapiens)
# Sequence (Q9NWZ3 1-460): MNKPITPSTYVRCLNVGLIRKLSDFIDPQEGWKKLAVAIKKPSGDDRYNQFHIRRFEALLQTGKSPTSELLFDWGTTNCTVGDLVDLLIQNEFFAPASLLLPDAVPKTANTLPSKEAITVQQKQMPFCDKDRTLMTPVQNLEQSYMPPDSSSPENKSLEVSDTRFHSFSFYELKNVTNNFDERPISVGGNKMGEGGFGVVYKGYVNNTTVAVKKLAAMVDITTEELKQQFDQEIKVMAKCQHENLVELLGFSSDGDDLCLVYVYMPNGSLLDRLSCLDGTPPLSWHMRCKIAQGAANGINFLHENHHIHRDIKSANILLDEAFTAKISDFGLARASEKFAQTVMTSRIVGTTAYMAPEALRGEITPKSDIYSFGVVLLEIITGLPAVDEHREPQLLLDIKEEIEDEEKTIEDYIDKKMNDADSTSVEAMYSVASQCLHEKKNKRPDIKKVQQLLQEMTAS
# test: mRNA display affinity selection against IRAK4, NGS abundance
# Type: binding
# Set-up: acids 1-460; NP_057207.2) was purchased from Carna Biosciences; purchased Carna Biosciences (Kobe, Japan)
# test-settings: IRAK4 selection pulldown (+); Top100 selection hits, NGS
Please map values of Raw reads to classes as shown: small value (below 30), mid value (30 to below 200), large value (200 or more)

Solved entries (count: 3):
| seq | qualitative-label |
| --- | --- |
| STRWKNRIYR | large value |
| AQYWKRRLWR | small value |
| TQYWKRRIYN | large value |

Would you kindly look at the next entry?
Query: Could you place SIFWRRRIYK in its proper category? Many thanks.
Response: large value

---

# assayed-system: TLR10 (Homo sapiens, UniProt Q9BXR5)
# Sequence (Q9BXR5 20-576): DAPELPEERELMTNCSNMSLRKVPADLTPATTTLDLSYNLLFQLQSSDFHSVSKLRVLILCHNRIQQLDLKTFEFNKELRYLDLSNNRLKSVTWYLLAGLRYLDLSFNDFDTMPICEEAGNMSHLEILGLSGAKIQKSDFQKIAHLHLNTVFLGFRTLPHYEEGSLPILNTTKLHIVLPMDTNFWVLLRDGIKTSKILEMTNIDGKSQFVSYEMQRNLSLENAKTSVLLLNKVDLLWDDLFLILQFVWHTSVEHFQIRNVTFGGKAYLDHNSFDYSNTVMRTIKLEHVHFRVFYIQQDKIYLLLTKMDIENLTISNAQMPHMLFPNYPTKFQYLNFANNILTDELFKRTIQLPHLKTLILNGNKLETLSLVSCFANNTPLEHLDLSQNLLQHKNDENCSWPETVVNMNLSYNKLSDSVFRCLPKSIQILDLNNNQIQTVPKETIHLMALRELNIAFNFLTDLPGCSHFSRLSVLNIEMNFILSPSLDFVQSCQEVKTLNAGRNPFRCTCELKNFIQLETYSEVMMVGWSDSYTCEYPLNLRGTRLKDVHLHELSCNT
# test: mRNA display affinity selection against TLR10, NGS abundance
# Format: binding
# Parameters: Chimera protein (extracellular domain, amino acid 20-576;); Fc (chimera); purchased R&D system #6619-TR-050
# test-settings: TLR10 selection pulldown (-); Top100 selection hits, NGS
Where no end group is shown, it is not given here.
Rule: Library fraction under 0.001 gives rule not met, otherwise rule met.

| seq | assayed-system | qualitative-label |
| --- | --- | --- |
| CITFQLTRKVAF (not fully specified) | TLR10 (Homo sapiens, UniProt Q9BXR5) | rule met |
| SIEFRRMRAIAY | TLR10 (Homo sapiens, UniProt Q9BXR5) | rule not met |
| SMYFESLNKLAV | TLR10 (Homo sapiens, UniProt Q9BXR5) | rule not met |
| RMMFHLLNQIAY | TLR10 (Homo sapiens, UniProt Q9BXR5) | rule met |
| ASINRYGGNAAS | TLR10 (Homo sapiens, UniProt Q9BXR5) | rule met |
| SFTFALQRRIAY | TLR10 (Homo sapiens, UniProt Q9BXR5) | rule not met |

Query: Can SSPNRYGGNVNT be said to have Library fraction at or above 0.001?
Response: rule not met

Query: Can SMLVWKGQSIRG be said to have Library fraction at or above 0.001?
Response: rule met

Query: Can SKIIWSNQAIRG be said to have Library fraction at or above 0.001?
Response: rule met

Query: Can SRTIYRCQSIRG be said to have Library fraction at or above 0.001?
Response: rule met

Query: Can TYWKACAMSHIP be said to have Library fraction at or above 0.001?
Response: rule not met

Query: Can TMQFPLQRRMAI be said to have Library fraction at or above 0.001?
Response: rule met

Query: Can TIELTHAYLH be said to have Library fraction at or above 0.001?
Response: rule not met

Query: Can IGRVWVQSS be said to have Library fraction at or above 0.001?
Response: rule met

Query: Can TMLFRLQSKLAI be said to have Library fraction at or above 0.001?
Response: rule met

Query: Can GLVINKRWYVHL be said to have Library fraction at or above 0.001?
Response: rule not met

Query: Can SICFPLQHKCAY be said to have Library fraction at or above 0.001?
Response: rule met

Query: Can CESCCYVIDFEF be said to have Library fraction at or above 0.001?
Response: rule met
